# relative IC50 per record follows
Test system: ZR-75-1
assay: relative IC50 (midpoint of fitted logistic curve, plateau may be below 50% inhibition; CellTiter-Glo viability); higher = less potent
experimental.conditions: 4-OH-tamoxifen in medium 1 µM; 72 h

molecule: COCC1(CO)C(=O)C2CCN1CC2 (stereo not drawn)
relative IC50: > 10000 nM
//
molecule: CO[C@H]1/C=C\C=C(/C)C(=O)NC2=CC(=O)C(NCCN(C)C)=C(C[C@@H](C)C[C@H](OC)[C@H](O)[C@@H](C)/C=C(\C)[C@@H]1OC(N)=O)C2=O
relative IC50: 75.2 nM
//
molecule: CC[C@@H]1C(=O)OC[C@@H]1Cc1cncn1C
relative IC50: > 40000 nM
//
molecule: Cc1c(CN2CCN(C(=O)[C@H](C)O)CC2)sc2c(N3CCOCC3)nc(-c3cnc(N)nc3)nc12
relative IC50: 145 nM
//
molecule: CCc1c(C(=O)C(N)=O)c2c(OCC(=O)O)cccc2n1Cc1ccccc1
relative IC50: > 10000 nM
//
molecule: CC(=O)Nc1ccc(C(=O)Nc2ccccc2N)cc1
relative IC50: > 1000 nM
//
molecule: NC(=O)NO [Hydroxyurea]
relative IC50: > 100000 nM
//
molecule: O=C(Cc1ccc(-c2ccc(OCCN3CCOCC3)cc2)cn1)NCc1ccccc1
relative IC50: 779 nM
//
molecule: N.N.[Cl][Pt][Cl] [Cisplatin]
relative IC50: > 10000 nM
//
molecule: CC1=C(/C=C/C(C)=C/C=C/C(C)=C/C(=O)O)C(C)(C)CCC1
relative IC50: > 10000 nM
//
molecule: CS(=O)(=O)N1CCN(Cc2cc3nc(-c4cccc5[nH]ncc45)nc(N4CCOCC4)c3s2)CC1
relative IC50: 453 nM
//
molecule: CC(C)(C)NC(=O)[C@H]1CC[C@H]2[C@@H]3CC[C@H]4NC(=O)C=C[C@]4(C)[C@H]3CC[C@]12C [Finasteride]
relative IC50: > 10000 nM
//
molecule: COc1cc2c(Oc3ccc4[nH]c(C)cc4c3F)ncnc2cc1OCCCN1CCCC1
relative IC50: > 1000 nM

---

Entries and their relative IC50
Tested on: T-47D Tam1
assay: relative IC50 (midpoint of fitted logistic curve, plateau may be below 50% inhibition; CellTiter-Glo viability); higher = less potent
experimental.conditions: 4-OH-tamoxifen in medium 1 µM; 72 h
quantity: relative IC50

compound: CCNC(=O)CCC/C=C\C[C@@H]1[C@@H](/C=C/[C@@H](O)CCc2ccccc2)[C@H](O)C[C@@H]1O [Bimatoprost]
quantity: relative IC50
result: > 5.5 µM

compound: Nc1nc2[nH]cc(CCc3ccc(C(=O)N[C@@H](CCC(=O)O)C(=O)O)cc3)c2c(=O)[nH]1 [Pemetrexed]
quantity: relative IC50
result: > 10 µM

compound: Cc1ccc(C(=O)N(CCCN)[C@@H](c2oc3cc(Cl)ccc3c(=O)c2Cc2ccccc2)C(C)C)cc1
quantity: relative IC50
result: > 0.1 µM

compound: CN1CCc2c(c3ccccc3n2Cc2ccc(C(=O)NO)cc2)C1 [Tubastatin A]
quantity: relative IC50
result: > 10 µM

compound: O=P(O)(NCCCl)NCCCl [Ifosfamide mustard]
quantity: relative IC50
result: > 10 µM

compound: C[C@]12CC[C@@H]3c4ccc(OC(=O)N(CCCl)CCCl)cc4CC[C@H]3[C@@H]1CC[C@@H]2O [Estramustine]
quantity: relative IC50
result: > 990 µM

compound: O=C(O)CC[C@H]1CC[C@@](c2cc(F)ccc2F)(S(=O)(=O)c2ccc(Cl)cc2)CC1 [MK-0752]
quantity: relative IC50
result: > 1 µM

compound: O=C1CN2Cc3c(ccc(Cl)c3Cl)N=C2N1 [Anagrelide]
quantity: relative IC50
result: > 10 µM

compound: Oc1ncc(N(CCCl)CCCl)c(O)n1 [Uracil mustard]
quantity: relative IC50
result: > 10 µM

compound: NCCCNCCSP(=O)(O)O [Amifostine]
quantity: relative IC50
result: > 10 µM

compound: N.N.[Cl][Pt][Cl] [Cisplatin]
quantity: relative IC50
result: > 10 µM

compound: N[C@@H](CSC(c1ccccc1)(c1ccccc1)c1ccccc1)C(=O)O [S-trityl-L-cysteine]
quantity: relative IC50
result: > 40 µM

compound: CNC(=O)c1ccc(N2C(=S)N(c3ccc(C#N)c(C(F)(F)F)c3)C(=O)C23CCC3)cc1F [RD162]
quantity: relative IC50
result: > 10 µM

compound: CN(N=O)C(=O)N[C@@H](C=O)[C@@H](O)[C@H](O)[C@H](O)CO [Streptozocin]
quantity: relative IC50
result: > 10 µM

compound: CCCS(=O)(=O)Nc1ccc(F)c(C(=O)c2c[nH]c3ncc(-c4ccc(Cl)cc4)cc23)c1F [Vemurafenib (PLX4032)]
quantity: relative IC50
result: > 10 µM

---

System: T-47D Tam2
assay: drug sensitivity score (DSS) (DSS (dimensionless)); higher = more sensitive; extreme values may be limits of the assay
experimental.conditions: 4-OH-tamoxifen in medium 1 µM; 72 h
Structures can show the parent of a compound that is named as a salt.
Reported drug sensitivity score values follow for various molecules

molecule: c1ccc2c(CCNc3ccc(Nc4ccncc4)cc3)c[nH]c2c1
measurement.target: T-47D Tam2
drug sensitivity score: 0.542

molecule: C[C@@H]1CCN(C(=O)CC#N)C[C@@H]1N(C)c1ncnc2[nH]ccc12 [Tofacitinib (Tasocitinib)]
measurement.target: T-47D Tam2
drug sensitivity score: 0

molecule: CC(C)C[C@H](NC(=O)[C@H](CCc1ccccc1)NC(=O)CN1CCOCC1)C(=O)N[C@@H](Cc1ccccc1)C(=O)N[C@@H](CC(C)C)C(=O)[C@@]1(C)CO1 [Carfilzomib]
measurement.target: T-47D Tam2
drug sensitivity score: 17.1

molecule: CC(=O)c1c(C)c2cnc(Nc3ccc(N4CCNCC4)cn3)nc2n(C2CCCC2)c1=O
measurement.target: T-47D Tam2
drug sensitivity score: 1.34

molecule: CCOc1cc2ncc(C#N)c(Nc3ccc(OCc4ccccn4)c(Cl)c3)c2cc1NC(=O)/C=C/CN(C)C [Neratinib]
measurement.target: T-47D Tam2
drug sensitivity score: 2.11

molecule: O=c1[nH]cc(F)c(=O)[nH]1 [Fluorouracil]
measurement.target: T-47D Tam2
drug sensitivity score: 0

molecule: Cc1ccc(C(=O)Nc2ccc(CN3CCN(C)CC3)c(C(F)(F)F)c2)cc1C#Cc1cnc2cccnn12
measurement.target: T-47D Tam2
drug sensitivity score: 1.72

molecule: Nc1ccccc1NC(=O)c1ccc(CNC(=O)OCc2cccnc2)cc1 [Entinostat]
measurement.target: T-47D Tam2
drug sensitivity score: 0.0349

molecule: C=C(c1ccc(C(=O)O)cc1)c1cc2c(cc1C)C(C)(C)CCC2(C)C [Bexarotene]
measurement.target: T-47D Tam2
drug sensitivity score: 0

molecule: C=CCN(/C=C1/C(=O)O[C@H](COC)[C@@]2(C)C1=C(O)C(=O)C1=C2[C@H](OC(C)=O)C[C@]2(C)C(=O)CC[C@@H]12)CC=C [Sonolisib (PX-866)]
measurement.target: T-47D Tam2
drug sensitivity score: 0

molecule: N.N.[Cl][Pt][Cl] [Cisplatin]
measurement.target: T-47D Tam2
drug sensitivity score: 0

molecule: COC(=O)C[C@](O)(CCCC(C)(C)O)C(=O)O[C@@H]1C(OC)=C[C@]23CCCN2CCc2cc4c(cc2[C@H]13)OCO4 [Omacetaxine (Homoharringtonine)]
measurement.target: T-47D Tam2
drug sensitivity score: 10.7

molecule: CCc1c2c(nc3ccc(OC(=O)N4CCC(N5CCCCC5)CC4)cc13)-c1cc3c(c(=O)n1C2)COC(=O)[C@]3(O)CC [Irinotecan]
measurement.target: T-47D Tam2
drug sensitivity score: 0.581

molecule: O=C1c2c(O)ccc(O)c2C(=O)c2c(NCCNCCO)ccc(NCCNCCO)c21 [Mitoxantrone]
measurement.target: T-47D Tam2
drug sensitivity score: 1.21

molecule: CCN(CC)CCOc1ccc(C(=C(Cl)c2ccccc2)c2ccccc2)cc1 [Clomifene citrate]
measurement.target: T-47D Tam2
drug sensitivity score: 2.56

molecule: CO[C@@]12[C@H](COC(N)=O)C3=C(C(=O)C(C)=C(N)C3=O)N1C[C@@H]1N[C@@H]12 [Mitomycin C]
measurement.target: T-47D Tam2
drug sensitivity score: 0.0558

molecule: C=CC(=O)N1CCC[C@@H](n2nc(-c3ccc(Oc4ccccc4)cc3)c3c(N)ncnc32)C1
measurement.target: T-47D Tam2
drug sensitivity score: 0.549

molecule: CC1=C(/C=C/C(C)=C/C=C/C(C)=C/C(=O)O)C(C)(C)CCC1 [Tretinoin]
measurement.target: T-47D Tam2
drug sensitivity score: 0.122

molecule: CC(=O)O[C@@]12CO[C@@H]1C[C@H](O)[C@@]1(C)C(=O)[C@H](O)C3=C(C)[C@@H](OC(=O)[C@H](O)[C@@H](NC(=O)OC(C)(C)C)c4ccccc4)C[C@@](O)([C@@H](OC(=O)c4ccccc4)[C@H]21)C3(C)C [Docetaxel]
measurement.target: T-47D Tam2
drug sensitivity score: 10.8

molecule: C[C@]12CC[C@H](O)CC1=CC[C@@H]1[C@@H]2CC[C@]2(C)C(c3cccnc3)=CC[C@@H]12 [Abiraterone (CB-7598)]
measurement.target: T-47D Tam2
drug sensitivity score: 0

molecule: CC[C@H](CO)Nc1nc(NCc2ccccc2)c2ncn(C(C)C)c2n1 [Seliciclib (Roscovitine)]
measurement.target: T-47D Tam2
drug sensitivity score: 0.682

molecule: N#Cc1ccc(COC[C@H]2O[C@@H](n3c(NCc4ccc(Cl)c(Cl)c4)nc4c(N)ncnc43)[C@H](O)[C@@H]2O)cc1
measurement.target: T-47D Tam2
drug sensitivity score: 2.46

molecule: C/C(=C\c1csc(C)n1)[C@@H]1C[C@@H]2O[C@]2(C)CCC[C@H](C)[C@H](O)[C@@H](C)C(=O)C(C)(C)[C@@H](O)CC(=O)O1 [Patupilone (Epothilone B)]
measurement.target: T-47D Tam2
drug sensitivity score: 6.29

molecule: Cc1ccc(Nc2nccc(N(C)c3ccc4c(C)n(C)nc4c3)n2)cc1S(N)(=O)=O [Pazopanib]
measurement.target: T-47D Tam2
drug sensitivity score: 0.821

molecule: CN(C)/N=N/c1[nH]cnc1C(N)=O [Dacarbazine]
measurement.target: T-47D Tam2
drug sensitivity score: 0

molecule: COc1ccc(-c2ccc3c(N4CCOC[C@@H]4C)nc(N4CCOC[C@@H]4C)nc3n2)cc1CO [AZD8055]
measurement.target: T-47D Tam2
drug sensitivity score: 10.2
